- Assay Target: recombinant human Meningioma Expressed Antigen 5 (MGEA5), also referred to as O-GlcNAcase (OGA) (Homo sapiens)
- Construct: Full length OGA enzyme was purchased at OriGene (cat #TP322411); purchased OriGene TP322411
- Sequence (O60502 1-916): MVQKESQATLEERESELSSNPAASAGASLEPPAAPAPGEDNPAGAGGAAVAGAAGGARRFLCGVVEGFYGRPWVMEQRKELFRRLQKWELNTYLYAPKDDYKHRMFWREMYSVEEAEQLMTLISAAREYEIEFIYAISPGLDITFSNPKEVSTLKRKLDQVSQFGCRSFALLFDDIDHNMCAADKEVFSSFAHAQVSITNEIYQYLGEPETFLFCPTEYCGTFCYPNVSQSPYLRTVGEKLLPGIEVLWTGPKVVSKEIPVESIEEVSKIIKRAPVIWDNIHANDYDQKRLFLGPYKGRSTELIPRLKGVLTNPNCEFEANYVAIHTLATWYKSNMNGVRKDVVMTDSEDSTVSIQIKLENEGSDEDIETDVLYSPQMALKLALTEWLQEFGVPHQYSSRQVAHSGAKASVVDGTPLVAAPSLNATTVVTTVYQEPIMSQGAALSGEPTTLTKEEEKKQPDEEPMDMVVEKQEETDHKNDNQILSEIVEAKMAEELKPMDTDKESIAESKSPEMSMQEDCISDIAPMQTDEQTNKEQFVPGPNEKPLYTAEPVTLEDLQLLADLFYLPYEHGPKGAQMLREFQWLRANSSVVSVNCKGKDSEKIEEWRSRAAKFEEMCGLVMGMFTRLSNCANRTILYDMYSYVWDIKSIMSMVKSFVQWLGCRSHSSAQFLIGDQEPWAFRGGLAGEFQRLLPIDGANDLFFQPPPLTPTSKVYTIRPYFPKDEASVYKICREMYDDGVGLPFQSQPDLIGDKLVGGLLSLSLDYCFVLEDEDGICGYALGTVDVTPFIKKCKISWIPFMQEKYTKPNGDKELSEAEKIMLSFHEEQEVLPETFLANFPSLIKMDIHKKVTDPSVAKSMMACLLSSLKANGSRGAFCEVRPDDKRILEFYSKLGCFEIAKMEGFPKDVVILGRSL
- Protocol Text: OGA biochemical assay (inhibition of FM-GlcNAc hydrolysis, fluorescence)
- Recorded Conditions: FM-GlcNAc substrate, maximal effect, read-out: Enzymatic Emax (%)
- From the text: The assay is based on the inhibition of the hydrolysis of fluorescein mono-β-D-N-Acetyl-Glucosamine (FM-GlcNAc) (Mariappa et al. 2015, Biochem J 470:255) by the recombinant human Meningioma Expressed Antigen 5 (MGEA5), also referred to as O-GlcNAcase (OGA). […] The fluorescence of the latter can be measured at excitation wavelength 485 nm and emission wavelength 538 nm. An increase in enzyme activity results in an increase in fluorescence signal. […]
Test Readout: Emax (%)

Compound: Cc1cc(C[C@H]2CCN(C(C)c3cnc4[nH]c(C)nc4c3)C2)cc(C(F)(F)F)n1 (stereo partly shown)
Emax [%]: 94

Compound: Cc1cc(OC[C@H]2CCCN(C(C)c3nc4nc(C)sc4cc3F)C2)cc(C)n1 (stereo partly shown)
Emax [%]: 101

Compound: Cc1cc(OC2CCCN(C(C)c3ccc4sc(C)nc4n3)C2)cc(C)n1 (stereo not shown)
Emax [%]: 99

Compound: Cc1cc([C@H]2CCCN([C@H](C)c3ccc4sc(C)nc4n3)C2)nc(C)n1 (racemic)
Emax [%]: 98

Compound: Cc1cc(C[C@H]2CCN([C@H](C)c3ccc4oc(C)nc4n3)C2)cc(C)n1 [Compound 27b]
Emax [%]: 47

Compound: Cc1cc(CO[C@H]2CCCN(C(C)c3ccc4sc(C)nc4n3)C2)cc(C)n1 (single isomer, unassigned) [Compound 67]
Emax [%]: 94

Compound: Cc1cc(C[C@@H]2CCN([C@H](C)c3cc4nc(C)oc4cc3F)C2)cc(C)n1 (relative stereo) [Compound 33a]
Emax [%]: 100

Compound: COc1cc(O[C@@H]2CCN(C(C)c3ccc4oc(C)nc4n3)C2)cc(C)n1 (mixture of isomers) [Compound 21ab]
Emax [%]: 97

Compound: Cc1cc(OC[C@H]2CCCN(C(C)c3cc4nc(C)sc4cc3F)C2)cc(C)n1 (stereo partly shown)
Emax [%]: 102

Compound: Cc1cc(CO[C@@H]2CCCN(C(C)c3ccc4sc(C)nc4n3)C2)cc(C)n1 (stereo partly shown) [Compound 68]
Emax [%]: 98

A = Cc1cc([C@H]2CCCN([C@@H](C)c3ccc4sc(C)nc4n3)C2)nc(C)n1 (racemic)
B = Cc1cc(O[C@@H]2CCN(C(C)c3cc4nc(C)sc4cc3F)C2)cc(C)n1 (stereo partly shown)
Which of the two gives a bigger number for Emax: A or B ? // output: label of the selected item
B
(B: 99%, A: 51%)

1 = Cc1cc(C[C@H]2CCCN([C@@H](C)c3ccc4oc(C)nc4n3)C2)cc(C(F)(F)F)n1 [Compound 24b]
2 = Cc1cc(C[C@H]2CCCN(C(C)c3ccc4occc4n3)C2)cc(C)n1 (mixture of isomers)
Hey, which is lower on measured Emax, 1 or 2 ? // output: label of the selected item
1
